Test system: human K562 chronic myelogenous leukemia (CML) xenograft
Assay: CML xenograft model in female SCID mice
Assay type: in vivo, mouse

{"columns": ["Chemical string", "anti-tumor effect"],
 "data": [
  ["Cc1cc2c(F)c(Oc3nc(Nc4cc(C5CC5)[nH]n4)cc(N4CCN(C)CC4)n3)cc(F)c2[nH]1", "strong anti-tumor effect"],
  ["Cc1cc2c(F)c(Oc3nc(Nc4cc(C5CC5)[nH]n4)cc(N4CCNCC4)n3)ccc2[nH]1", "strong anti-tumor effect"],
  ["Cc1cc2c(F)c(Oc3nc(Nc4cc(C5CC5)[nH]n4)cc(N4CCN(C)CC4)n3)ccc2[nH]1", "strong anti-tumor effect"]
]}

----------
Listed below: inhibition at 1 µM values for each entry.
Biological target: Flt3(h) (Homo sapiens)
Sequence (P36888 27-993): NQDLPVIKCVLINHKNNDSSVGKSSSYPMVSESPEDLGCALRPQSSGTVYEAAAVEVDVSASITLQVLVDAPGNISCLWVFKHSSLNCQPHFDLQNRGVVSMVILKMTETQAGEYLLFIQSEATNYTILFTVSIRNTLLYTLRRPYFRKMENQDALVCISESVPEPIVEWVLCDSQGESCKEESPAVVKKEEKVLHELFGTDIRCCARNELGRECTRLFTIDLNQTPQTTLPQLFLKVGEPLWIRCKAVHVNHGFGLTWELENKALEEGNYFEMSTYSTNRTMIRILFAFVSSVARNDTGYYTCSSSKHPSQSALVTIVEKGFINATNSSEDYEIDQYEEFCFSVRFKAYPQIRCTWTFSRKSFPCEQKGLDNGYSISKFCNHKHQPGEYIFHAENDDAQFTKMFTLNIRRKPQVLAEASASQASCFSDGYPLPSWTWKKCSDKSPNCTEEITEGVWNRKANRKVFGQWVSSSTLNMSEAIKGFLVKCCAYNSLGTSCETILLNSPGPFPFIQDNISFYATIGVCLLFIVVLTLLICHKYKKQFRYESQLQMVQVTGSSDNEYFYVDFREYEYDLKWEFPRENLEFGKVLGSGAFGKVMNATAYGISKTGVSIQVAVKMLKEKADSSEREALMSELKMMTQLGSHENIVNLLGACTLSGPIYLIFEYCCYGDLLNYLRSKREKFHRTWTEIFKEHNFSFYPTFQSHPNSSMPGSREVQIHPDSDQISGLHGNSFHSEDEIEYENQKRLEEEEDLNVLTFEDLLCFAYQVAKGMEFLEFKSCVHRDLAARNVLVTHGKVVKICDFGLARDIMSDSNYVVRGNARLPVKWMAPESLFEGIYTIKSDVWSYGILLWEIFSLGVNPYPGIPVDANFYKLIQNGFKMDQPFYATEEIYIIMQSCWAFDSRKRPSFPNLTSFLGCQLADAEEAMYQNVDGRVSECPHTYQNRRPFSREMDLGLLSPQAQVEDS
Experiment: KinaseProfiler kinase assay
Format: biochemical
The answer consists of two parts: a number and, after it, its unit.

{"columns": ["Molecule", "inhibition at 1 µM"],
 "data": [
  ["Cc1cc2c(F)c(Oc3nc(Nc4cc(C5CC5)[nH]n4)cc(N4CCC(N(C)C)C4)n3)ccc2[nH]1 (stereo not drawn)", "100%"],
  ["CCN1CCN(c2cc(Nc3cc(C)[nH]n3)nc(Oc3cc(F)c4[nH]c(C)cc4c3F)n2)CC1", "99%"],
  ["CCN1CCN(c2cc(Nc3cc(C4CC4)[nH]n3)nc(Oc3ccc4[nH]c(C)cc4c3F)n2)CC1", "101%"],
  ["Cc1cc2c(F)c(Oc3nc(Nc4cc(C5CC5)[nH]n4)cc(N4CCN(CCO)CC4)n3)cc(F)c2[nH]1", "99%"],
  ["C/C=C/c1cc(Nc2cc(N3CCOCC3)nc(Oc3ccc4[nH]c(C)cc4c3F)n2)n[nH]1", "100%"]
]}

In: Find the recorded inhibition at 1 µM belonging to C/C=C/c1cc(Nc2cc(N3CCC(N(CC)CC)C3)nc(Oc3cc(F)c4[nH]c(C)cc4c3F)n2)n[nH]1 (stereo not drawn) and report it.
Out: 99%

In: Next up: C/C=C/c1cc(Nc2cc(N3CCC(OC)CC3)nc(Oc3cc(F)c4[nH]c(C)cc4c3F)n2)n[nH]1
Out: 99%

In: Query Cc1cc2c(F)c(Oc3nc(Nc4cc(C5CC5)[nH]n4)cc(N4CCOCC4)n3)cc(F)c2[nH]1 next
Out: 100%

----------
Target: UniProt O14965
Sequence (O14965 whole entry): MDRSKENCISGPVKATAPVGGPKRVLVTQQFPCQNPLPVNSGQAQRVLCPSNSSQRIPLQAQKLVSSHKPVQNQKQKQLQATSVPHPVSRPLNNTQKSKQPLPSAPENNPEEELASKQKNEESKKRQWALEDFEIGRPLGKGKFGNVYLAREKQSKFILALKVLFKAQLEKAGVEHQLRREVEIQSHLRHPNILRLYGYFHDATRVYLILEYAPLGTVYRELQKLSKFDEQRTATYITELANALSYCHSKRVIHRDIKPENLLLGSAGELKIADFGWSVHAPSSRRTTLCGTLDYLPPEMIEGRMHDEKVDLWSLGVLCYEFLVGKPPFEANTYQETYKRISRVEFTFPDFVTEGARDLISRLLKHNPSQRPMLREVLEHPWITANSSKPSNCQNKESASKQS
Assay: KinaseProfiler kinase assay
Assay type: biochemical
Conditions: Aurora-A; read-out: IC50
Assay endpoint: IC50 (nM)
Reply with just the number (in nM).

In: IC50 of C/C=C/c1cc(Nc2cc(N3CCN(C)CC3)nc(Oc3ccc4[nH]c(C)cc4c3F)n2)n[nH]1 [Compound 53] on UniProt O14965?
Out: 4

----------
Biological target: Abl(h) (Homo sapiens, UniProt P00519)
Test: KinaseProfiler kinase assay
Format: biochemical
Details: Abl; read-out: IC50
Assay endpoint: pIC50
A value of pIC50 is the negative decimal logarithm of a concentration given in moles per litre.

In: Would you kindly share the measured pIC50 for C/C=C/c1cc(Nc2cc(N3CCN(C)CC3)nc(Oc3ccc4[nH]c(C)cc4c3F)n2)n[nH]1 [Compound 53] ?
Out: 9.22

----------
Biological target: Abl(Y253F)(h) (Homo sapiens, UniProt P00519, Y253F)
Assay: KinaseProfiler kinase assay
Settings: Abl (Y253F)
Assay endpoint: IC50 (nM)
Entry rule: numbers only, all in nM.

In: Data request, read-out IC50, for C/C=C/c1cc(Nc2cc(N3CCN(C)CC3)nc(Oc3ccc4[nH]c(C)cc4c3F)n2)n[nH]1
Out: 0.5
